biological target: GLP-1R (Homo sapiens); construct: host or cells: GLP-1R CRE-bla CHO-K1 cells; test: EC20 GLP-1(9-36) PAM cAMP assay: dose response of compound in the presence of fixed concentration of GLP-1(9-36); assay type: cell-based; settings: dose response of compound in presence of fixed concentration of GLP-1(9-36), GLP-1R CRE-bla CHO-K1 cells, read-out: EC20 GLP-1(9-36) PAM EC50
Sequence (P43220 24-463): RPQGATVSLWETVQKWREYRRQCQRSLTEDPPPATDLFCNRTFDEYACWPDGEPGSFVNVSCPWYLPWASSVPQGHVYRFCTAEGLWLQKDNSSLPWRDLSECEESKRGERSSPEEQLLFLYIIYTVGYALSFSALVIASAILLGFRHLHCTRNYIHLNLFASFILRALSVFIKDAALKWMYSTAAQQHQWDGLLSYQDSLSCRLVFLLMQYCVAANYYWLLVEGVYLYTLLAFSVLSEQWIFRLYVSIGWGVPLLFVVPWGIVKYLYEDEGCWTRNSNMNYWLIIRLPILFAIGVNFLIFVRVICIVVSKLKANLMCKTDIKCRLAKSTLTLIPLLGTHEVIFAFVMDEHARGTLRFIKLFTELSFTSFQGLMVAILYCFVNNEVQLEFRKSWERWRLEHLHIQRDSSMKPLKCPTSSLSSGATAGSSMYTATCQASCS
Sequence (P01275 100-127 partner limits assumed): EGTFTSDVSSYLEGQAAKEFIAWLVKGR
observedProperty: EC50

// worked examples, EC50 included
molecule	testedTarget	EC50
CCCCCCCOc1ccc(-c2cnc(-c3ccc(C[C@H](NC(=O)c4ccc(N5CCCC5)cc4)C(=O)N[C@@H](C)C(=O)O)cc3)nc2)cc1	GLP-1R (Homo sapiens)	0.8 to 2.5 µM
CCCOc1ccc(-c2cnc(-c3ccc(C[C@H](NC(=O)c4ccc(C(C)(C)C)s4)C(=O)N4CC(C(=O)O)C4)cc3)nc2)cc1	GLP-1R (Homo sapiens)	2.5 to 5 µM
CCCCCCCOc1ccc(-c2cnc(-c3ccc(C[C@H](NC(=O)c4ccc(C(C)(C)C)s4)C(=O)NC(C(=O)O)C(O)c4cccnn4)cc3)nc2)cc1 (stereo partly drawn)	GLP-1R (Homo sapiens)	0.8 to 2.5 µM
CCCCCCCOc1ccc(-c2cnc(-c3ccc(CC(NC(=O)c4ccc(C(C)(C)C)s4)C(=O)N[C@@H](Cc4c[nH]c5ccccc45)C(=O)O)cc3)nc2)cc1 (stereo partly drawn)	GLP-1R (Homo sapiens)	< 0.8 µM
CCCCCCCOc1ccc(-c2cnc(-c3ccc(C[C@H](NC(=O)c4ccc(C(C)(C)C)cc4)C(=O)NC(C(=O)O)c4ccc(C(F)(F)F)cc4)cc3)nc2)cc1 (stereo partly drawn)	GLP-1R (Homo sapiens)	0.8 to 2.5 µM

**Q:** For GLP-1R (Homo sapiens), give the measured EC50 of the entry CCCCCCCOc1ccc(-c2cnc(-c3ccc(C[C@H](NC(=O)c4ccc(C(C)(C)C)s4)C(=O)N[C@H](C)C(=O)O)cc3)nc2)c(C)c1
**A:** 0.8 to 2.5 µM

**Q:** // output EC50; input CC(C)(C)c1ccc(C(=O)N[C@@H](Cc2ccc(-c3ncc(-c4ccc(-c5ccc(OC(F)(F)F)cc5)cc4F)cn3)cc2)C(=O)N2CC(C(=O)O)C2)s1 ; system GLP-1R (Homo sapiens)
**A:** < 0.8 µM

**Q:** Please tell me the measured EC50 for CCCCCCCOc1ccc(-c2cnc(-c3ccc(C[C@H](NC(=O)c4ccc(CC)cc4)C(=O)N4CC[C@H](C(=O)O)C4)cc3)nc2)cc1 ; system: GLP-1R (Homo sapiens).
**A:** 0.8 to 2.5 µM

**Q:** Report value: EC50, system: GLP-1R (Homo sapiens), molecule: CCCCCCCOc1ccc(-c2cnc(-c3ccc(C[C@H](NC(=O)c4ccc(C(C)(C)C)s4)C(=O)N4CC[C@@H]4C(=O)O)cc3)nc2)cc1
**A:** 0.8 to 2.5 µM

**Q:** Identify measured EC50 obtained with GLP-1R (Homo sapiens) for CC(C)(C)c1ccc(C(=O)N[C@@H](Cc2ccc(-c3ncc(-c4ccc(OC5CCCC5)cc4)cn3)cc2)C(=O)NC(C(=O)O)C(O)c2ccccc2)s1 (stereo partly drawn) .
**A:** 5 to 10 µM

**Q:** Write EC50 of CCCCCCCOc1ccc(-c2cnc(-c3ccc(C[C@H](NC(=O)c4ccc(C(C)(C)C)cc4)C(=O)NC(Cn4cncn4)C(=O)O)cc3)nc2)cc1 (stereo partly drawn) ; system used: GLP-1R (Homo sapiens)
**A:** < 0.8 µM

**Q:** # assay system GLP-1R (Homo sapiens): give EC50 of CCCCCCCOc1ccc(-c2cnc(-c3ccc(C[C@H](NC(=O)c4ccc(C(C)(C)C)cc4)C(=O)N[C@H](CC(=O)O)C(=O)NC)cc3)nc2)cc1
**A:** 0.8 to 2.5 µM
